B1: full-length phytochrome B (phyB), wild type, in vitro translated [modified: 35S-methionine labelled; 35S-methionine labelled] [Arabidopsis thaliana] / GAD-PIF3, in vitro translated [modified: 35S-methionine labelled … (parent)
chain 1: MVSGVGGSGGGRGGGRGGEEEPSSSHTPNNRRGGEQAQSSGTKSLRPRSNTESMSKAIQQYTVDARLHAVFEQSGESGKSFDYSQSLKTTTYGSSVPEQQITAYLSRIQRGGYIQPFGCMIAVDESSFRIIGYSENAREMLGIMPQSVPTLEKPEILAMGTDVRSLFTSSSSILLERAFVAREITLLNPVWIHSKNTGKPFYAILHRIDVGVVIDLEPARTEDPALSIAGAVQSQKLAVRAISQLQALPGGDIKLLCDTVVESVRDLTGYDRVMVYKFHEDEHGEVVAESKRDDLEPYIGLHYPATDIPQASRFLFKQNRVRMIVDCNATPVLVVQDDRLTQSMCLVGSTLRAPHGCHSQYMANMGSIASLAMAVIINGNEDDGSNVASGRSSMRLWGLVVCHHTSSRCIPFPLRYACEFLMQAFGLQLNMELQLALQMSEKRVLRTQTLLCDMLLRDSPAGIVTQSPSIMDLVKCDGAAFLYHGKYYPLGVAPSEVQIKDVVEWLLANHADSTGLSTDSLGDAGYPGAAALGDAVCGMAVAYITKRDFLFWFRSHTAKEIKWGGAKHHPEDKDDGQRMHPRSSFQAFLEVVKSRSQPWETAEMDAIHSLQLILRDSFKESEAAMNSKVVDGVVQPCRDMAGEQGIDELGAVAREMVRLIETATVPIFAVDAGGCINGWNAKIAELTGLSVEEAMGKSLVSDLIYKENEATVNKLLSRALRGDEEKNVEVKLKTFSPELQGKAVFVVVNACSSKDYLNNIVGVCFVGQDVTSQKIVMDKFINIQGDYKAIVHSPNPLIPPIFAADENTCCLEWNMAMEKLTGWSRSEVIGKMIVGEVFGSCCMLKGPDALTKFMIVLHNAIGGQDTDKFPFPFFDRNGKFVQALLTANKRVSLEGKVIGAFCFLQIPSPELQQALAVQRRQDTECFTKAKELAYICQVIKNPLSGMRFANSLLEATDLNEDQKQLLETSVSCEKQISRIVGDMDLESIEDGSFVLKREEFFLGSVINAIVSQAMFLLRDRGLQLIRDIPEEIKSIEVFGDQIRIQQLLAEFLLSIIRYAPSQEWVEIHLSQLSKQMADGFAAIRTEFRMACPGEGLPPELVRDMFHSSRWTSPEGLGLSVCRKILKLMNGEVQYIRESERSYFLIILELPVPRKRPLSTASGSGDMMLMMPY
chain 2: MPLFELFRLTKAKLESAQDRNPSPPVDEVVELVWENGQISTQSQSSRSRNIPPPQANSSRAREIGNGSKTTMVDEIPMSVPSLMTGLSQDDDFVPWLNHHPSLDGYCSDFLRDVSSPVTVNEQESDMAVNQTAFPLFQRRKDGNESAPAASSSQYNGFQSHSLYGSDRARDLPSQQTNPDRFTQTQEPLITSNKPSLVNFSHFLRPATFAKTTNNNLHDTKEKSPQSPPNVFQTRVLGAKDSEDKVLNESVASATPKDNQKACLISEDSCRKDQESEKAVVCSSVGSGNSLDGPSESPSLSLKRKHSNIQDIDCHSEDVEEESGDGRKEAGPSRTGLGSKRSRSAEVHNLSERRRRDRINEKMRALQELIPNCNKVDKASMLDEAIEYLKSLQLQVQIMSMASGYYLPPAVMFPPGMGHYPAAAAAMAMGMGMPYAMGLPDLSRGGSSVNHGPQFQVSGMQQQPVAMGIPRVSGGGIFAGSSTIGNGSTRDLSGSKDQTTTNNNSNLKPIKRKQGSSDQFCGSS

Variants of: B1
EXPERIMENTAL DETAILS: in vitro co-immunoprecipitation
EXPERIMENTAL PARAMETERS: with GAD-PIF3, in vitro translated [modified: 35S-methionine labelled, phyB in Pfr form, GAD-PIF3 as bait, phyB as prey, 35S-met in vitro translated proteins, parent: 17, read off a plot
MEASUREMENT LABEL: screen value (relative to wild-type phyB Pr = 1)

Reference set (2 entries):
> print(dat)
     mutation.id  endpoint.result
1  chain 1 C345R              5.1
2  chain 1 V273L              3.9

P: chain 1 S367P
Q: chain 1 I308T
(Q) Decide: P or Q , by lowest recorded screen value (relative to wild-type phyB Pr = 1). // return label of chosen record
(A) Q
(Q: 2.3, P: 4.8)
